Recorded reverse-splicing fitness by entry
B1: Azoarcus group I ribozyme (parent)
chain: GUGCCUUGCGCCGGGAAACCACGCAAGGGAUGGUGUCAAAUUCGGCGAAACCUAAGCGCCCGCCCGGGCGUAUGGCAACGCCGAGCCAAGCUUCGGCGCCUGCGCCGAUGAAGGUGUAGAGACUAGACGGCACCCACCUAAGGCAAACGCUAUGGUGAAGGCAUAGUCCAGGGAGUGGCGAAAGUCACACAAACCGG

variants of: B1; assay: reverse-splicing fitness (ratio to wild type); higher = more active; in vitro selection; Mg2+ level not given
PROPERTY: reverse-splicing fitness

{"columns": ["VARIANT", "PROPERTY", "TEST VALUE"],
 "data": [
  ["C82G A111U A120G A145C C169U U176A", "reverse-splicing fitness", 0.0203],
  ["C82G A120G C150A C169U U176C", "reverse-splicing fitness", 0.02],
  ["C82G A120G A145G C150A C169A U176A", "reverse-splicing fitness", 0.0199]
]}
